Please provide measured IC50 for the entries that follow.
molecular target: Norepinephrine transporter (Rattus norvegicus, UniProt Q9WTR4); test: Inhibition of uptake of tritiated norepinephrine (NE) into rat brain synaptosomes
Sequence (Q9WTR4 whole entry): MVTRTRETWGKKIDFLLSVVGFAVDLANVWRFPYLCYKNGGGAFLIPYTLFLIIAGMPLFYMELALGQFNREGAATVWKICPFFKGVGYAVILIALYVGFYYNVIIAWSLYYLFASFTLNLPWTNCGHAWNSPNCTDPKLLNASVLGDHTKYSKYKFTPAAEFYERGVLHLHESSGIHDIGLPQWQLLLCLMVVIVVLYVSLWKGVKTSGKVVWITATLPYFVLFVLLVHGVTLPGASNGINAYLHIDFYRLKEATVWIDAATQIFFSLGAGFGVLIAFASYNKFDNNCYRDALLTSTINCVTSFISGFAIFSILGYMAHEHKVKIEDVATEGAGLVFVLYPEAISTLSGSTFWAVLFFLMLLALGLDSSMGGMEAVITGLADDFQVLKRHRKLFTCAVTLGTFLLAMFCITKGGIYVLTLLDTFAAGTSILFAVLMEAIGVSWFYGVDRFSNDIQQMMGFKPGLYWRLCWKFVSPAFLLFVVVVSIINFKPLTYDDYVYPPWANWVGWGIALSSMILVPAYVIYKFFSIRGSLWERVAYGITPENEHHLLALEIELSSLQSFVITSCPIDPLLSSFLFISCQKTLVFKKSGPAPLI
Numbers only, in µM.

Example cases with answers are listed next.
>>> recorded_number("COc1cccc(C(CN(C)C)C2(O)CCCCC2)c1 (configuration not stated)")
0.62
>>> recorded_number("CN(C)CC(c1ccc(Cl)c(Cl)c1)C1(O)CCCCC1 (configuration not stated)")
0.07
>>> recorded_number("CN(C)CC(c1ccc(C(F)(F)F)cc1)C1(O)CCCCCC1 (configuration not stated)")
2.4
>>> recorded_number("CN(C)CC(c1ccc(C(F)(F)F)cc1)C1(O)CCCC1 (configuration not stated)")
10.4
>>> recorded_number("CN(C)CC(c1ccc(Br)cc1)C1(O)CCC1 (configuration not stated)")
0.89
>>> recorded_number("CN(C)CC(c1cccc(C(F)(F)F)c1)C1(O)CCCCC1 (configuration not stated)")
0.36

API: the following record is the query input.
Query string: Entry under review: CN(C)CC(c1ccc(Br)cc1)C1(O)CCCCC1 (configuration not stated) . Reported IC50?
Result string: 0.21

* * *

Please respond with reported log10 IC50 for every item in the list.
biological target: Norepinephrine transporter (Rattus norvegicus); experiment: Inhibition of uptake of tritiated norepinephrine (NE) into rat brain synaptosomes
// stored as log10 of IC50 expressed in nM

>>> recorded_number("COc1ccc(C(CN(C)C)C2(O)CCCCC2)cc1Br (configuration not stated)")
2.15
>>> recorded_number("CN(C)CC(c1ccc(C(F)(F)F)cc1)C1(O)CCCCC1 (configuration not stated)")
3.45
>>> recorded_number("CNCC(c1ccc(OC)cc1)C1(O)CCCCC1 (configuration not stated) [N-DESMETHYLVENLAFAXINE CHLORIDE]")
3.67
>>> recorded_number("CN(C)CC(c1ccc(O)cc1)C1(O)CCCCC1 (configuration not stated)")
3.06

Give one value of log10 IC50 per listed compound.
1. CN(C)CC(c1cccc(Br)c1)C1(O)CCCCC1 (configuration not stated)
2. COc1ccc(C(CN(C)C)C2(O)CCCCCC2)cc1 (configuration not stated)
3. Cc1ccc(C(CN(C)C)C2(O)CCCCC2)cc1 (configuration not stated)
4. CN(C)CC(c1ccc(Cl)cc1)C1(O)CCCCC1 (configuration not stated)
5. CN(C)CC(c1ccccc1)C1(O)CCCCC1 (configuration not stated)

Result string:
1: 2.04; 2: 3.32; 3: 2.72; 4: 2.48; 5: 3.28

Give log10 IC50 for each of the items listed below.
1. COc1ccc(C(CN(C)C)C2(O)CCCCC2)cc1OC (configuration not stated)
2. COc1ccc(C(CN(C)C)C2(O)CCCC2)cc1 (configuration not stated)

Result string:
1. 3.14
2. 3.76

* * *

Kindly state minimal effective dose for each of the entries shown.
tested on: Mus musculus; experiment: In vivo antagonism of reserpine-induced hypothermia in the mice; format: functional; conditions: Mus musculus; read-out: MED
The reply should consist of the numeric value with the unit placed after it.

For each of the items listed, what is its minimal effective dose?
1. CN(C)CC(c1cccc(Br)c1)C1(O)CCCCC1 (configuration not stated)
2. CN(C)CC(c1ccc(Cl)c(Cl)c1)C1(O)CCCCC1 (configuration not stated)
3. CNCCCN1c2ccccc2CCc2ccccc21
4. CN(C)CC(c1cccc(Cl)c1)C1(O)CCCCC1 (configuration not stated)
5. COc1ccc(C(CN(C)C)C2(O)CCCCC2)cc1Br (configuration not stated)

Result string:
1. 1 mg/kg
2. 3 mg/kg
3. 0.4 mg/kg
4. 1 mg/kg
5. 1 mg/kg

# batch size: 2; output minimal effective dose per entry
1. COc1cccc(C(CN(C)C)C2(O)CCCCC2)c1 (configuration not stated)
2. CN(C)CC(c1ccc(Br)cc1)C1(O)CCCCC1 (configuration not stated)

Result string:
["3 mg/kg", "1 mg/kg"]

* * *

molecular target: Sodium-dependent serotonin transporter (Rattus norvegicus); test: Inhibition of uptake of [14C]-labelled serotonin (5-HT) into rat brain synaptosomes
Sequence (P31652 whole entry): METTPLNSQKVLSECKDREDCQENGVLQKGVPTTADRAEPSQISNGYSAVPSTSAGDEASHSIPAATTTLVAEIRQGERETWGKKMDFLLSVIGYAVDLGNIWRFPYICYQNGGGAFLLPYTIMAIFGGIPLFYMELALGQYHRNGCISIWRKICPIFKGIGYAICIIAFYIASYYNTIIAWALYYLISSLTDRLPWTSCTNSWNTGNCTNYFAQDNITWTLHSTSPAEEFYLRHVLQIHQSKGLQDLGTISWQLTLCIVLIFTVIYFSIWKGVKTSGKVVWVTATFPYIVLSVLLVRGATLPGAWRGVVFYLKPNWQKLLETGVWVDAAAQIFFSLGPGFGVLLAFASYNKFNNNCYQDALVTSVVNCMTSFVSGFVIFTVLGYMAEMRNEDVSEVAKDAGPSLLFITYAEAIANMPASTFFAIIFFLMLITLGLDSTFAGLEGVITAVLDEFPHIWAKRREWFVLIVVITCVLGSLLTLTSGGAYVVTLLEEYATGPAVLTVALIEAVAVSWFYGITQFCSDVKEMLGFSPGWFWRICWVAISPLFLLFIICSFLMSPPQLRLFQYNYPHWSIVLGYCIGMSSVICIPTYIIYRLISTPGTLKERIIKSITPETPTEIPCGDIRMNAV
Experimental endpoint: log10 IC50 (log10 of the value in nM)
Parameter value (number): base-10 log of IC50 in nM.

Here's what some known entries look like.
>>> recorded_number("COc1ccc(C(CN(C)C)C2(O)CCCCCC2)cc1 (stereo unspecified)")
2.38
>>> recorded_number("Cc1ccc(C(CN(C)C)C2(O)CCCCC2)cc1 (stereo unspecified)")
3.19
>>> recorded_number("CN(C)CC(c1ccc(Br)cc1)C1(O)CCCCC1 (stereo unspecified)")
2.04
>>> recorded_number("CN(C)CC(c1ccc(Cl)cc1)C1(O)CCCCC1 (stereo unspecified)")
2.26
>>> recorded_number("COc1ccc(C(CN(C)C)C2(O)CCCCC2)cc1Br (stereo unspecified)")
2.30
>>> recorded_number("COc1cccc(C(CN(C)C)C2(O)CCCCC2)c1 (stereo unspecified)")
2.28

Hey, quick one: what's log10 IC50 for each of these?
1. CN(C)CC(c1ccc(C(F)(F)F)cc1)C1(O)CCCCC1 (stereo unspecified)
2. CN(C)CC(c1cccc(C(F)(F)F)c1)C1(O)CCCCC1 (stereo unspecified)
3. CN(C)CC(c1ccc(C(F)(F)F)cc1)C1(O)CCCC1 (stereo unspecified)
4. COc1cccc(C(CN(C)C)C2(O)CCCC2)c1 (stereo unspecified)
5. CN(C)CC(c1cccc(Br)c1)C1(O)CCCCC1 (stereo unspecified)
6. CN(C)CC(c1ccc(C(F)(F)F)cc1)C1(O)CCCCCC1 (stereo unspecified)
7. CNCC(c1ccc(OC)cc1)C1(O)CCCCC1 (stereo unspecified) [N-DESMETHYLVENLAFAXINE CHLORIDE]

Result string:
2.60
3.16
2.69
2.83
2.36
2.70
3.20

Could you tell me log10 IC50 for each of these compounds? They are listed below.
1. COc1ccc(C(CN(C)C)C2(O)CCCC2)cc1 (stereo unspecified)
2. CN(C)CC(c1ccc(Br)cc1)C1(O)CCC1 (stereo unspecified)
3. COc1ccc(C(CN(C)C)C2(O)CCCCC2)cc1OC (stereo unspecified)

Result string:
1. 2.60
2. 2.76
3. 2.11
